Provenance of the data: ChEMBL document CHEMBL4680187

target: UniProt:Q03145; test: Displacement of biotinylated ephrin-A1-Fc from recombinant mouse c-terminal His6-tagged EphA2 Fc (Ala22 to Ala535 residues) preincubated for 1 hr followed by ephrin-A1-FC addition and measured after 4 hrs by ELISA
Sequence (Q03145 whole entry): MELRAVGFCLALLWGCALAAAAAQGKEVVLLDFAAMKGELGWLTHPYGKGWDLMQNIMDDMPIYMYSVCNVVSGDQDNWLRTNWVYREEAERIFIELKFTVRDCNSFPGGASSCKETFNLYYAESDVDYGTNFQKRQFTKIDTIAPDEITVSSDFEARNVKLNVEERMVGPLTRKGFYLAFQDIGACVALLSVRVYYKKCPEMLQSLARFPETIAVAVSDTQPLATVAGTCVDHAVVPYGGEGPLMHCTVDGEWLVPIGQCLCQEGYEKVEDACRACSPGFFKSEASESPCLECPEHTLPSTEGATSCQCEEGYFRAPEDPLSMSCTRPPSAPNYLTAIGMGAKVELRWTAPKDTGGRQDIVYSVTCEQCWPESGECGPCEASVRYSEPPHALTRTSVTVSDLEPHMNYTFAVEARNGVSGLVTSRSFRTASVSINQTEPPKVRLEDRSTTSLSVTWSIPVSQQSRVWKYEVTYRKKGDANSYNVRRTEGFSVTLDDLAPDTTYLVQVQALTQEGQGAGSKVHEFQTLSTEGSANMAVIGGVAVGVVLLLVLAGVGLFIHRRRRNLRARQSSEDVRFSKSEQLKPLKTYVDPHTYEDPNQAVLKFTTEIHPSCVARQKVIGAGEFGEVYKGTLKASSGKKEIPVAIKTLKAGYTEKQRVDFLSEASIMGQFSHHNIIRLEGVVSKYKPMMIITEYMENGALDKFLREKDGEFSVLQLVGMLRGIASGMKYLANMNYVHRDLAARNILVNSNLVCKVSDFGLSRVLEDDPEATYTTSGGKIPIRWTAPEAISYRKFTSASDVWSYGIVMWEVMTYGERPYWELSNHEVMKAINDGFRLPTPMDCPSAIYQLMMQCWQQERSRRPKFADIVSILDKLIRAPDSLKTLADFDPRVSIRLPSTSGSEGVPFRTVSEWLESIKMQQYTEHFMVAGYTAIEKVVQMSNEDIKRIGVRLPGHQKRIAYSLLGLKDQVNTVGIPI
readout.label: IC50 (µM)

A selection of reference data follows.
| structure.as.smiles | measured.on | reading.unit | observed.result |
| --- | --- | --- | --- |
| CCCCNC(=O)O[C@@H]1CC[C@@]2(C)[C@H](CC[C@@H]3[C@@H]2CC[C@]2(C)[C@@H]([C@H](C)CCC(=O)N[C@H](CC(=O)O)Cc4c[nH]c5ccccc45)CC[C@@H]32)C1 | UniProt:Q03145 | µM | 1.1 |
| C[C@H](CCC(=O)O)[C@H]1CC[C@H]2[C@@H]3CC[C@@H]4C[C@H](OC(=O)NC5CCCCC5)CC[C@]4(C)[C@H]3CC[C@]12C | UniProt:Q03145 | µM | 2.7 |
| CC(C)NC(=O)O[C@@H]1CC[C@@]2(C)[C@H](CC[C@@H]3[C@@H]2CC[C@]2(C)[C@@H]([C@H](C)CCC(=O)O)CC[C@@H]32)C1 | UniProt:Q03145 | µM | 12 |
| CCCCCCCCNC(=O)O[C@@H]1CC[C@@]2(C)[C@H](CC[C@@H]3[C@@H]2CC[C@]2(C)[C@@H]([C@H](C)CCC(=O)O)CC[C@@H]32)C1 | UniProt:Q03145 | µM | 4.5 |
| CCNC(=O)O[C@@H]1CC[C@@]2(C)[C@H](CC[C@@H]3[C@@H]2CC[C@]2(C)[C@@H]([C@H](C)CCC(=O)O)CC[C@@H]32)C1 | UniProt:Q03145 | µM | 30 |
| C[C@H](CCC(=O)N[C@H](CC(=O)O)Cc1c[nH]c2ccccc12)[C@H]1CC[C@H]2[C@@H]3CC[C@@H]4C[C@H](OC(=O)NC5CCCCC5)CC[C@]4(C)[C@H]3CC[C@]12C | UniProt:Q03145 | µM | 1.2 |
| C[C@H](CCC(=O)O)[C@H]1CC[C@H]2[C@@H]3CC[C@@H]4C[C@H](OC(=O)Nc5ccccc5)CC[C@]4(C)[C@H]3CC[C@]12C | UniProt:Q03145 | µM | 38 |
| CCCCNC(=O)O[C@@H]1CC[C@@]2(C)[C@H](CC[C@@H]3[C@@H]2CC[C@]2(C)[C@@H]([C@H](C)CCC(=O)O)CC[C@@H]32)C1 | UniProt:Q03145 | µM | 3.7 |

(I) CCCCCCNC(=O)O[C@@H]1CC[C@@]2(C)[C@H](CC[C@@H]3[C@@H]2CC[C@]2(C)[C@@H]([C@H](C)CCC(=O)N[C@H](CC(=O)O)Cc4c[nH]c5ccccc45)CC[C@@H]32)C1
(II) CCCCCCNC(=O)O[C@@H]1CC[C@@]2(C)[C@H](CC[C@@H]3[C@@H]2CC[C@]2(C)[C@@H]([C@H](C)CCC(=O)O)CC[C@@H]32)C1
(III) CC(C)NC(=O)O[C@@H]1CC[C@@]2(C)[C@H](CC[C@@H]3[C@@H]2CC[C@]2(C)[C@@H]([C@H](C)CCC(=O)N[C@H](CC(=O)O)Cc4c[nH]c5ccccc45)CC[C@@H]32)C1
Task item: List from greatest to least IC50. Answer format: the labels, in the requested order.
Reply: III, II, I
